System Name: Kv1.3 potassium channel (Homo sapiens)
Sequence (P22001 whole entry): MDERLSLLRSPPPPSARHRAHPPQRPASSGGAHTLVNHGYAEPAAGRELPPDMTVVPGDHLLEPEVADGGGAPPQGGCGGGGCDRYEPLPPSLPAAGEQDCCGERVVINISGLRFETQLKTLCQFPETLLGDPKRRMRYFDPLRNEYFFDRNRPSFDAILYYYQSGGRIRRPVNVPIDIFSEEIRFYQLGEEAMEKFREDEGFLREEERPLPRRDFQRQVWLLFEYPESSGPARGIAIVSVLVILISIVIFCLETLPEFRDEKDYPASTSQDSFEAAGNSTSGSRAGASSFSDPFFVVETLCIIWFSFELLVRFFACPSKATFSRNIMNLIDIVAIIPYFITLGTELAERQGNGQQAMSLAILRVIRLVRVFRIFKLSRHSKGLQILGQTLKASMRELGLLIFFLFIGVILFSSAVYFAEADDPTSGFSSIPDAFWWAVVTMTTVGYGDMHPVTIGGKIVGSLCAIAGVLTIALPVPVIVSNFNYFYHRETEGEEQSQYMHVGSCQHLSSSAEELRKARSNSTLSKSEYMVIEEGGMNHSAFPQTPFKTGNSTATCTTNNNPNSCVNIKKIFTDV
Method Notes: Kv1.3 potassium channel blocker activity, automated whole-cell patch clamp (Patchliner)
Experimental Conditions: CHO-K1 cells stably expressing Kv1.3; whole cell current inhibition; read-out: Kvl.3 IC50
pIC50: −log10 of the molar value.
Assay Endpoint: pIC50

Kv1.3 potassium channel (Homo sapiens) assay, compound Cc1cc(O)c(CN2CCC(CO)CC2)cc1Cl , recorded pIC50 = > 6.00

Query CC(=O)NCC1(CO)CCN(Cc2cc(Cl)c(Cl)cc2O)CC1 on Kv1.3 potassium channel (Homo sapiens); pIC50 returned: > 6.00

Short answer on Kv1.3 potassium channel (Homo sapiens) for OCC1CCN(Cc2cc(Br)c(Br)cc2O)CC1 , pIC50: > 6.00

Recorded pIC50 for O=C(N1CCOCC1)N1CCN(Cc2cc(Cl)c(Cl)cc2O)CC1 on Kv1.3 potassium channel (Homo sapiens) was > 5.00

Test item COCC1CCN(Cc2cc(Cl)c(Cl)cc2O)CC1 ; Kv1.3 potassium channel (Homo sapiens); reported pIC50 was > 5.00

NCC(c1cc(Cl)c(Cl)cc1O)N1CCC(CO)CC1 (stereo not drawn) tested on Kv1.3 potassium channel (Homo sapiens) gave pIC50: > 5.00

Short answer on Kv1.3 potassium channel (Homo sapiens) for NCC1(CO)CCN(Cc2cc(Cl)c(Cl)cc2O)CC1 , pIC50: > 6.00

Tested system Kv1.3 potassium channel (Homo sapiens); pIC50 recorded for O=C(C1CCN(Cc2cc(Br)c(Br)cc2O)CC1)N1CCCC1 was > 6.00

Readout pIC50 for C[C@H]1C[C@@H](CO)CCN1Cc1cc(Cl)c(Cl)cc1O (relative stereo) , test system Kv1.3 potassium channel (Homo sapiens), was > 6.00

Noted pIC50 for O=C1CCOC12CCN(Cc1cc(Cl)c(Cl)cc1O)CC2 , tested on Kv1.3 potassium channel (Homo sapiens): > 5.00

With Kv1.3 potassium channel (Homo sapiens) as the test system, O=C1CCC2(CCN1)CCN(Cc1cc(Cl)c(Cl)cc1O)CC2 showed pIC50 of > 5.00

Field pIC50 (system: Kv1.3 potassium channel (Homo sapiens)) for entry NCC1CCN(Cc2cc(Cl)c(Cl)cc2O)CC1 = > 6.00

* * *

System Name: Kv1.3 potassium channel (Homo sapiens)
Method Notes: Kv1.3 potassium channel blocker activity, automated whole-cell patch clamp (Patchliner)
Experimental Conditions: CHO-K1 cells stably expressing Kv1.3; whole cell current inhibition; read-out: Kvl.3 IC50
Assay Endpoint: IC50

Noted for Oc1cc(Cl)c(Cl)cc1CN1CCC2(CC1)COCC2O (stereo not shown) : its IC50 reads < 1 µM

The recorded IC50 for entry NCC1(N)CCN(Cc2cc(Cl)c(Cl)cc2O)CC1 equals < 1 µM

Recorded result, OCC1CCCN(Cc2cc(Cl)c(Cl)cc2O)CC1 (stereo not shown) , IC50: < 1 µM

Oc1cc(Cl)c(Cl)cc1CN1CCC(c2ccn[nH]2)CC1 has a reported IC50 of < 10 µM

response.value for OCC1CN(Cc2cc(Cl)c(Cl)cc2O)CCO1 (stereo not shown) (field: IC50) = < 10 µM

// sample OCC1CN(Cc2cc(Cl)c(Cl)cc2O)C1 , its IC50 was < 10 µM

The compound listed as NC1(CO)CCN(Cc2cc(Cl)c(Cl)cc2O)CC1 shows IC50 equal to < 1 µM

Looking up Oc1cc(Cl)c(Cl)cc1CN1CCC(C2CCOCC2)CC1 , I found its IC50 recorded as < 1 µM

Memo: C=CC(=O)NCC1(CO)CCN(Cc2cc(Cl)c(Cl)cc2O)CC1 , reported IC50: < 1 µM

The recorded IC50 for entry CN(C)C(=O)C1CCN(Cc2cc(Cl)c(Cl)cc2O)CC1 equals < 10 µM

All figures here come from patent US20220411367A1.
